// provenance: ChEMBL document CHEMBL5325454

tested on: Vibrio harveyi; assay: Antibacterial activity against Vibrio harveyi BB120 assessed as inhibition of bacterial growth measured at 24 hrs by broth microdilution assay; assay type: functional
Listed next: entries and their corresponding MIC.
Report only the number, with the unit µM understood.

Answered examples (7):
CC(=O)N/N=C/c1ccc2c(c1O)C=CC(C)(C)O2 ... 40
CC1(C)C=Cc2c(ccc(/C=N/NC(=O)c3cccnc3)c2O)O1 ... 10
CC1(C)C=Cc2c(ccc(/C=N/NC(=O)c3ccncc3)c2O)O1 ... 15.6
Cc1cc(C(=O)N/N=C/c2ccc3c(c2O)C=CC(C)(C)O3)ccc1[N+](=O)[O-] ... 62.5
CC1(C)C=Cc2c(ccc(/C=N/NC(=O)c3ccc(O)cc3)c2O)O1 ... 3.9
CC1(C)C=Cc2c(ccc(/C=N/NC(=O)c3ccc(O)cc3O)c2O)O1 ... 10
CC1(C)C=Cc2c(ccc(/C=N/NC(=O)c3ccccc3)c2O)O1 ... 7.8

Task item: Which MIC reading was recorded for the compound CC1(C)C=Cc2c(ccc(/C=N/NC(N)=S)c2O)O1 ?
Reply: 125
